Origin of values: ChEMBL document CHEMBL4706555

inhibition values for the compounds below.
Molecular target: Ectonucleotide pyrophosphatase/phosphodiesterase family member 1 (Homo sapiens)
Sequence (whole entry): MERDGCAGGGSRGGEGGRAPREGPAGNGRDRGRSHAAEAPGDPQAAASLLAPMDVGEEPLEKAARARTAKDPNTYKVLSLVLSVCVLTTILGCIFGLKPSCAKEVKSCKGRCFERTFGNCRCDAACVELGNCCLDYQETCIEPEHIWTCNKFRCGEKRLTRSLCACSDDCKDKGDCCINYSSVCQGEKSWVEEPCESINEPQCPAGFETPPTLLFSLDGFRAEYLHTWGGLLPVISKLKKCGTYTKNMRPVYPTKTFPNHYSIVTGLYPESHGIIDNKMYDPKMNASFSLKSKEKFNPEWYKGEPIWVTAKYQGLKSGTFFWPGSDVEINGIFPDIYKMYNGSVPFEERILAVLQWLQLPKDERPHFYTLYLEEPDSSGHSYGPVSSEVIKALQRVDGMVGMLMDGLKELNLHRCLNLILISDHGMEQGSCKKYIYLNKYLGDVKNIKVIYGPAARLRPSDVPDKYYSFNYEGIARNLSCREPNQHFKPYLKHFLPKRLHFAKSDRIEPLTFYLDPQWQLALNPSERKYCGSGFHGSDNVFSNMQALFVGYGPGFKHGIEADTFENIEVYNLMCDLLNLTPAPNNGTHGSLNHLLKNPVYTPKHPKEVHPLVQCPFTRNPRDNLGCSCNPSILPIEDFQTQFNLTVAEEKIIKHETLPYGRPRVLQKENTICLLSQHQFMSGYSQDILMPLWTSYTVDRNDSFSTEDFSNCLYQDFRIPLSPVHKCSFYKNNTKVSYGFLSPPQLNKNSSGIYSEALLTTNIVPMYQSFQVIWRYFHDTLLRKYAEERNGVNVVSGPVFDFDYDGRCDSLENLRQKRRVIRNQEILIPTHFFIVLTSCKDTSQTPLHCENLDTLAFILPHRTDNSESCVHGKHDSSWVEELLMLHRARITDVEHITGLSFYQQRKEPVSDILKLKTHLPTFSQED
Assay: Inhibition of human recombinant NPP1 expressed in COS-7 cell membrane using p-nitrophenyl thymidine monophosphate substrate incubated for 35 mins by spectrophotometric analysis
Assay type: cell membranes
Set-up: concentration or dose not given beside the values
observable: inhibition (%)

{"columns": ["structure_as_smiles", "measurement_target", "observable", "unit_of_measurement", "quantitative_readout"],
 "data": [
  ["c1ccc(-c2ccc(-c3coc(-c4ccccc4)n3)cc2)cc1", "Ectonucleotide pyrophosphatase/phosphodiesterase family member 1 (Homo sapiens)", "inhibition", "%", 31],
  ["Cc1nc(-c2ccc(-c3ccccc3C)cc2)co1", "Ectonucleotide pyrophosphatase/phosphodiesterase family member 1 (Homo sapiens)", "inhibition", "%", 40],
  ["Cc1nc(-c2ccc(-c3ccccc3)cc2)co1", "Ectonucleotide pyrophosphatase/phosphodiesterase family member 1 (Homo sapiens)", "inhibition", "%", 46],
  ["Cc1cccc(-c2ccc(-c3coc(-c4ccccc4)n3)cc2)c1", "Ectonucleotide pyrophosphatase/phosphodiesterase family member 1 (Homo sapiens)", "inhibition", "%", 48],
  ["c1ccc(-c2nc(-c3ccc(-c4cccc5ccccc45)cc3)co2)cc1", "Ectonucleotide pyrophosphatase/phosphodiesterase family member 1 (Homo sapiens)", "inhibition", "%", 44],
  ["COc1ccc(-c2ccc(-c3coc(C)n3)cc2)cc1", "Ectonucleotide pyrophosphatase/phosphodiesterase family member 1 (Homo sapiens)", "inhibition", "%", 38],
  ["CCOc1ccccc1-c1nc(-c2ccc(-c3ccccc3)cc2)co1", "Ectonucleotide pyrophosphatase/phosphodiesterase family member 1 (Homo sapiens)", "inhibition", "%", 27],
  ["Cc1cccc(-c2ccc(-c3coc(C)n3)cc2)c1", "Ectonucleotide pyrophosphatase/phosphodiesterase family member 1 (Homo sapiens)", "inhibition", "%", 43],
  ["c1ccc(-c2ccc(-c3coc(-c4ccccc4-c4ccccc4)n3)cc2)cc1", "Ectonucleotide pyrophosphatase/phosphodiesterase family member 1 (Homo sapiens)", "inhibition", "%", 33],
  ["Cc1cccc(-c2ccc(-c3coc(-c4ccccc4-c4cccc(C)c4)n3)cc2)c1", "Ectonucleotide pyrophosphatase/phosphodiesterase family member 1 (Homo sapiens)", "inhibition", "%", 36]
]}
